Each entry below lists one item and its recorded selectivity ratio value.
Assay: Selectivity index, ratio of IC50 for human MCF-10A cells to IC50 for human MCF7 cells
Type: toxicity
Conditions: MCF-10A cells and MCF7 cells, read-out: Selectivity Index

- molecule: "CC(C)[C@@H](C)/C=C/[C@@H](C)[C@H]1CC[C@@H]2[C@]1(C)CC[C@H]1[C@]23C=C[C@]2(C[C@@H](OC(=O)NCCNC(=O)CN4C(=O)S/C(=C\\C5CC5)C4=O)CC[C@]12C)OO3"
  selectivity ratio: 6.55
- molecule: "CC(C)[C@@H](C)/C=C/[C@@H](C)[C@H]1CC[C@@H]2[C@]1(C)CC[C@H]1[C@]23C=C[C@]2(C[C@@H](OC(=O)NCCNC(=O)CN4C(=O)S/C(=C\\c5ccc(Br)cc5)C4=O)CC[C@]12C)OO3"
  selectivity ratio: 10.3
- molecule: "COc1ccc(/C=C2\\SC(=O)N(CC(=O)NCCNC(=O)O[C@H]3CC[C@]4(C)[C@H]5CC[C@]6(C)[C@@H]([C@H](C)/C=C/[C@H](C)C(C)C)CC[C@H]6[C@@]56C=C[C@]4(C3)OO6)C2=O)c(OC)c1OC"
  selectivity ratio: 7.07
- molecule: "Cc1ccc(/C=C2\\SC(=O)N(CC(=O)NCCNC(=O)O[C@H]3CC[C@]4(C)[C@H]5CC[C@]6(C)[C@@H]([C@H](C)/C=C/[C@H](C)C(C)C)CC[C@H]6[C@@]56C=C[C@]4(C3)OO6)C2=O)cc1"
  selectivity ratio: 5.11
- molecule: "COc1ccc(/C=C2\\SC(=O)N(CC(=O)NCCNC(=O)O[C@H]3CC[C@]4(C)[C@H]5CC[C@]6(C)[C@@H]([C@H](C)/C=C/[C@H](C)C(C)C)CC[C@H]6[C@@]56C=C[C@]4(C3)OO6)C2=O)cc1OC"
  selectivity ratio: 3.89
- molecule: "CC(C)[C@@H](C)/C=C/[C@@H](C)[C@H]1CC[C@@H]2[C@]1(C)CC[C@H]1[C@]23C=C[C@]2(C[C@@H](OC(=O)NCCNC(=O)CN4C(=O)S/C(=C\\c5ccccc5)C4=O)CC[C@]12C)OO3"
  selectivity ratio: 6.12
- molecule: "CC(C)[C@@H](C)/C=C/[C@@H](C)[C@H]1CC[C@@H]2[C@]1(C)CC[C@H]1[C@]23C=C[C@]2(C[C@@H](OC(=O)NCCNC(=O)CN4C(=O)S/C(=C\\c5ccc(Cl)cc5)C4=O)CC[C@]12C)OO3"
  selectivity ratio: 4.9
- molecule: "CC(C)[C@@H](C)/C=C/[C@@H](C)[C@H]1CC[C@@H]2[C@]1(C)CC[C@H]1[C@]23C=C[C@]2(C[C@@H](OC(=O)NCCNC(=O)CN4C(=O)S/C(=C\\c5cccc6ccccc56)C4=O)CC[C@]12C)OO3"
  selectivity ratio: 10.6
